These data points were gathered from patent US20240383954A1.

biological target: IL-23R (Homo sapiens, UniProt Q5VWK5); test: cell-based
Sequence (Q5VWK5 24-629): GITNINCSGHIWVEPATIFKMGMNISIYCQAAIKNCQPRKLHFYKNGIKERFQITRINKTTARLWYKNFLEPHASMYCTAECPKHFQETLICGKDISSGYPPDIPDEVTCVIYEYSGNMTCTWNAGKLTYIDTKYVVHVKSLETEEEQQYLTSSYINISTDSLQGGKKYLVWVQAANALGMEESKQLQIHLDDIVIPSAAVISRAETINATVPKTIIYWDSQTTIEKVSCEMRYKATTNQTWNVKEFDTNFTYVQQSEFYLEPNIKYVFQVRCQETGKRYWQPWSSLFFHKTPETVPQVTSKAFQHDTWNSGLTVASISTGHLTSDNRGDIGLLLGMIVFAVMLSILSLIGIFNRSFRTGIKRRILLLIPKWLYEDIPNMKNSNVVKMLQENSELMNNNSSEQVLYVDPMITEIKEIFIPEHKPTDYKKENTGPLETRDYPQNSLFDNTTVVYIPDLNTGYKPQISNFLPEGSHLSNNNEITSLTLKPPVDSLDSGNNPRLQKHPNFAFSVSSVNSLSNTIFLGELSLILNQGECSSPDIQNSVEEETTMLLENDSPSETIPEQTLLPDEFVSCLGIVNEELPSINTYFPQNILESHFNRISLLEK
Starred links: 1 amine or outer side, 2 acyl side, 3 side chain; linkers in the order of their positions; H or OH if unused. Positions of bridges follow the written chain, without caps; N, C: chain ends. Non-standard residues stand in square brackets, D forms with d. Residues, ends and D or L forms follow the SMILES beside them. Trp(7-Ph) = N[C@@H](Cc1c[nH]c2c(-c3ccccc3)cccc12)C(=O)O; Trp(7-Me) = Cc1cccc2c(C[C@H](N)C(=O)O)c[nH]c12; Abu(4-yl) = O=C([C@H](CC[*:3])N[*:1])[*:2]; 2Nal = N[C@@H](Cc1ccc2ccccc2c1)C(=O)O; AEF = NCCOc1ccc(C[C@H](N)C(=O)O)cc1; αMeF = C[C@](N)(Cc1ccccc1)C(=O)O; Pen = CC(C)(S)[C@H](N)C(=O)O; αMeK = C[C@](N)(CCCCN)C(=O)O; dDap = NC[C@@H](N)C(=O)O
QUANTITY NAME: pIC50
pIC50 here: minus log base 10 of the concentration, concentration in moles per litre.

Data request: Can you share its pIC50? I mean this molecule: CC(=O)NCCCC[C@@H]1NC(=O)[C@H](Cc2c[nH]c3c(-c4ccccc4)cccc23)NC(=O)[C@H]([C@@H](C)O)NC(=O)[C@H](CCC(N)=O)NC(=O)[C@@H](NC(C)=O)CCSC[C@@H](C(=O)N[C@@H](Cc2ccc(OCCN)cc2)C(=O)N[C@@H](Cc2ccc3ccccc3c2)C(=O)N[C@@](C)(CCCCN)C(=O)N[C@@H](CCCCNC(C)=O)C(=O)N[C@@H](CC(N)=O)C(=O)N[C@@](C)(Cc2ccccc2)C(N)=O)NC1=O [Compound 67] (Ac-[Abu(4-yl)]QT[Trp(7-Ph)]K(Ac)C[AEF][2Nal][αMeK]K(Ac)N[αMeF]-NH2; thioether 1-6)
Data returned: 8.26

Data request: Fill blank: measured pIC50 of the molecule CC(=O)NCCCC[C@@H]1NC(=O)[C@H](Cc2c[nH]c3c(C)cccc23)NC(=O)[C@H]([C@@H](C)O)NC(=O)[C@H](CC(N)=O)NC(=O)[C@@H](NC(C)=O)C(C)(C)SSC(C)(C)[C@@H](C(=O)N[C@@H](Cc2ccc(OCCN)cc2)C(=O)N[C@@H](Cc2ccc3ccccc3c2)C(=O)N[C@@](C)(CCCCN)C(=O)N[C@@H](CCCCNC(C)=O)C(=O)N[C@@H](CC(N)=O)C(=O)NC(C)(C)C(=O)NCCCCCC(N)=O)NC1=O [Compound 70] is ____.
Data returned: 8.91

Data request: Query (molecule): CC(=O)NCCCC[C@@H]1NC(=O)[C@H](Cc2c[nH]c3c(C)cccc23)NC(=O)[C@H]([C@@H](C)O)NC(=O)[C@H](CC(N)=O)NC(=O)[C@@H](NC(C)=O)C(C)(C)SSC(C)(C)[C@@H](C(=O)N[C@@H](Cc2ccc(OCCN)cc2)C(=O)N[C@@H](Cc2ccc3ccccc3c2)C(=O)N[C@@](C)(CCCCN)C(=O)N[C@@H](CCCCNC(C)=O)C(=O)N[C@@H](CC(N)=O)C(=O)N[C@@H](Cc2ccc(N)cc2)C(N)=O)NC1=O [Compound 112] ; field requested: pIC50
Data returned: 8.68

Data request: Would you mind telling me what pIC50 value was observed for CC(=O)NCCCC[C@@H]1NC(=O)[C@H](Cc2c[nH]c3c(C)cccc23)NC(=O)[C@@H](CCCCN)NC(=O)[C@H](CC(N)=O)NC(=O)[C@@H](NC(C)=O)C(C)(C)SSC(C)(C)[C@@H](C(=O)N[C@@H](Cc2ccc(OCCN)cc2)C(=O)N[C@@H](Cc2ccc3ccccc3c2)C(=O)N[C@@](C)(CCCCN)C(=O)N[C@@H](CCCCNC(C)=O)C(=O)N[C@@H](CC(N)=O)C(=O)N[C@H](CC(C)C)C(N)=O)NC1=O [Compound 73] (Ac-[Pen]N[dK][Trp(7-Me)]K(Ac)[Pen][AEF][2Nal][αMeK]K(Ac)N[dL]-NH2; disulfide 1-6) ?
Data returned: 7.29

Data request: Report pIC50 for CC(=O)NCCCC[C@@H]1NC(=O)[C@H](Cc2c[nH]c3c(C)cccc23)NC(=O)[C@@H](CN)NC(=O)[C@H](CC(N)=O)NC(=O)[C@@H](NC(C)=O)C(C)(C)SSC(C)(C)[C@@H](C(=O)N[C@@H](Cc2ccc(OCCN)cc2)C(=O)N[C@@H](Cc2ccc3ccccc3c2)C(=O)N[C@@](C)(CCCCN)C(=O)N[C@@H](CCCCNC(C)=O)C(=O)N[C@@H](CC(N)=O)C(=O)N[C@H](CC(C)C)C(N)=O)NC1=O [Compound 72] (Ac-[Pen]N[dDap][Trp(7-Me)]K(Ac)[Pen][AEF][2Nal][αMeK]K(Ac)N[dL]-NH2; disulfide 1-6) please.
Data returned: 7.28

Data request: Name the recorded pIC50 for CC(=O)NCCCC[C@@H]1NC(=O)[C@H](Cc2c[nH]c3c(C)cccc23)NC(=O)[C@@H](CC(=O)O)NC(=O)[C@H](CC(N)=O)NC(=O)[C@@H](NC(C)=O)C(C)(C)SSC(C)(C)[C@@H](C(=O)N[C@@H](Cc2ccc(OCCN)cc2)C(=O)N[C@@H](Cc2ccc3ccccc3c2)C(=O)N[C@@](C)(CCCCN)C(=O)N[C@@H](CCCCNC(C)=O)C(=O)N[C@@H](CC(N)=O)C(=O)N[C@H](CC(C)C)C(N)=O)NC1=O [Compound 74] (Ac-[Pen]N[dD][Trp(7-Me)]K(Ac)[Pen][AEF][2Nal][αMeK]K(Ac)N[dL]-NH2; disulfide 1-6) .
Data returned: 7.14

Data request: Bench note: what pIC50 did CC(=O)NCCCC[C@@H]1NC(=O)[C@H](Cc2c[nH]c3c(C)cccc23)NC(=O)[C@H]([C@@H](C)O)NC(=O)[C@H](CC(N)=O)NC(=O)[C@@H](NC(C)=O)C(C)(C)SSC(C)(C)[C@@H](C(=O)N[C@@H](Cc2ccc(OCCN)cc2)C(=O)N[C@@H](Cc2ccc3ccccc3c2)C(=O)N[C@@](C)(CCCCN)C(=O)N[C@@H](CCCCNC(C)=O)C(=O)N[C@@H](CC(N)=O)C(=O)NC(C)(C)C(=O)N[C@H](CC(N)=O)Cc2ccccc2)NC1=O [Compound 71] show?
Data returned: 8.47
